- Protocol: Human HepG2 cell viability assay in 384 well format
- Format: toxicity, cell-based
- Design: dose 125 nL, time 70.5 hour; concentration not given beside the values
- Settings: HepG2 cells, read-out: Inhibition
Would you kindly list cytotoxicity at 70.5 h for each of these compounds?
# output: numeric value plus its unit

Data request: Name the reported cytotoxicity at 70.5 h value associated with the compound CC(C)(C)C(=O)NCC(=O)NCC1CCCS1 (stereo unspecified)
Data returned: -10.6%

Data request: Entry Cc1cccc(-c2c[nH]c(C3CCCN3C(=O)C3CCOCC3)n2)c1 (stereo unspecified) please
Data returned: -10.3%

Data request: What do we get for COCCC(=O)N1CCn2cc(CN3CCN(C)CC3)nc2C1 ?
Data returned: 0.542%

Data request: What about CC(C)(C)CCNc1nccc(-c2c[nH][nH]c2=O)n1 ?
Data returned: -4.19%

Data request: Entry to check: CC(c1nnc(-c2cccs2)o1)N1CCn2c(nnc2C2CC2)C1 (stereo unspecified)
Data returned: -0.792%

Data request: Would you mind doing CCOc1nnc(CN(CC)CC(=O)NC(C)(C)C)s1 as well?
Data returned: 10.3%

* * *

- Protocol: Human HepG2 cell viability assay in 384 well format
- Format: toxicity, cell-based
- Parameters: dose 125 nL, time 70.5 hour; concentration not given beside the values
- Settings: HepG2 cells, read-out: Inhibition
Please provide measured cytotoxicity at 70.5 h for the entries that follow.
Express it in %; write the number only.

Data request: For Cc1ccc(C(=O)NS(=O)(=O)c2ccccc2F)c(=O)[nH]1 , what is its reported cytotoxicity at 70.5 h?
Data returned: -1.46

Data request: Another compound to check: COCC(=O)N1CCC2(CC1)COCCN2CCN(C)C
Data returned: -19.5

Data request: # iterate: CC(C)OC(=O)c1ccc(Cl)c(NC(=O)NCCN2CCOCC2)c1
Data returned: -7.91

Data request: What do we get for CC(=O)C(C)CC(=O)N(Cc1cccc(C)c1)C(C)C (stereo not drawn) ?
Data returned: -1.29

Data request: Query Cc1ccc(N2CCC3(CCC(=O)N3Cc3ccncc3)CC2)nn1 next
Data returned: 0.778

Data request: Request: c1ccc(CO[C@@H]2CO[C@@]3(CCN(Cc4ccccn4)C3)C2)nc1
Data returned: -16

Data request: Next compound: COC(=O)CC1CN(Cc2c(Cl)ccc3cccnc23)CCO1 (stereo not drawn)
Data returned: -12.3

Data request: Also, CCn1cnnc1CCNc1nc(C)cc(C)c1C#N please.
Data returned: 27.1

Data request: Ok, now CCc1nnc2n1CCN(Cc1csc(-c3cnn(C)c3)n1)C2
Data returned: 6.48

Data request: Also O=C(NCc1ccco1)Nc1ccc2nc(N3CCOCC3)oc2c1 ?
Data returned: -2.89

Data request: What would you report for Cc1cnn(CCNCc2ccc(OCc3csc(C)n3)cc2)c1 ?
Data returned: -4.31

Data request: Would you mind doing COCCN1CCN(CC(=O)N(C)Cc2ccsc2)CC1C (stereo not drawn) as well?
Data returned: -7.6

Data request: Similarly, Cc1ccc(C(=O)NCCC2CN(c3cnn(C)c(=O)c3)CCO2)s1 (stereo not drawn) ?
Data returned: -3.44

Data request: Next up: COc1ccc(-c2ccnc(N)c2)c(OC)c1
Data returned: 13.7

Data request: Now the same for Cc1ccc(C(=O)NC(CN2CCCC2=O)c2ccccc2)c(=O)[nH]1 (stereo not drawn)
Data returned: 17.4

Data request: Lookup CCOc1cc(NC(=O)N2CCC(c3nnc[nH]3)CC2)ccc1C
Data returned: -0.547

Data request: One more compound: CCNc1ncc(C)c(-c2cnn(C)c2)n1
Data returned: -13.2

Data request: Note, next up: CNc1cncc(C2CCCN2C(=O)Cn2ccnc2C)n1 (stereo not drawn)
Data returned: -5.3

Data request: Try the compound O=C(c1cc(-n2cnnn2)ccc1Cl)N1CCN(c2ccccc2)CC1
Data returned: -1.12

Data request: Do the same for c1cc(CN2C[C@@H]3OCCN(CC4CCCO4)[C@@H]3C2)co1 (stereo partly drawn) please
Data returned: -10.8

Data request: // query: CCn1nc(C)c2ncnc(NCCCn3ccnc3)c21
Data returned: -9.37

Data request: And what about the compound O=C(Cc1ccc2c(c1)OCCO2)NC1CCN(CC(F)F)CC1 ?
Data returned: -19.5

Data request: Please answer likewise for COCC1c2c(cnn2CC2CC2)CCN1Cc1ccsc1 (stereo not drawn)
Data returned: -20.6

Data request: One more compound: Cc1ccc(NC2CCN(C(=O)c3cccc4c3ccn4C)CC2)nn1
Data returned: -3.5

Data request: Same question for CC(=O)Nc1ncc(S(=O)(=O)Nc2cccc(O)c2)s1 please.
Data returned: -13.4

Data request: Another compound: CC(=O)N1CCC2(CCN(C(=O)c3ccc(Cl)c(C(F)(F)F)c3)CC2)C1
Data returned: 1.62

Data request: Here is the next compound: Cn1cc(CN2CCC(c3ccncc3)CC2)cn1
Data returned: -9.54

Data request: Input CN(C)C(=O)N1CCN(C(=O)C(c2ccccc2F)N(C)C)CC1 (stereo not drawn)
Data returned: -4.32

Data request: Another: CCNC(=O)CN1CCC(OCC2CCCO2)CC1 (stereo not drawn)
Data returned: -6.63

Data request: Another compound to check: CCN(CC)S(=O)(=O)CC(=O)N1CCc2ccc(Cl)cc21
Data returned: -1.78

Data request: Please answer likewise for NC(=O)Cn1ccnc1C1CCCN(Cc2cccc(Cl)c2F)C1 (stereo not drawn)
Data returned: -11.7

Data request: Do the same for CCc1nc(C)ncc1C(=O)N1CCCC(n2nc(C)nc2C)C1 (stereo not drawn) please
Data returned: -12

Data request: Next compound up: O=C(NC1CC1)C1CN(C(=O)c2cnccn2)C1
Data returned: -3.98

Data request: Please do the same for COc1cc2c(cc1CN1C[C@@H](CN3CCOCC3)[C@@H](CO)C1)CCC2 as well.
Data returned: -2.99

Data request: Cool, now CCOCCn1nc(C)cc1C(=O)N1CCN(C(C)C)C(CC)C1 (stereo not drawn)
Data returned: -8.86

Data request: Repeat with COCCN1CCC(CN(Cc2ccncc2)C2CCC2)CC1
Data returned: -6.79

Data request: # repeat for COCCn1ccc2c(C(=O)Nc3nc4c(s3)CCC4)cccc21
Data returned: -1.37

Data request: One more compound: COC(=O)C(CNC(=O)Nc1nncs1)Cc1ccc(O)cc1 (stereo not drawn)
Data returned: -2.82

Data request: Do the same for CCSCCC(C)N(C)C(=O)c1cc(C)on1 (stereo not drawn) please
Data returned: -3.26

Data request: Also need CCCS(=O)(=O)N1CCN(c2ccc3nnc(CC)n3n2)CC1 , thanks.
Data returned: -12.7

Data request: Moving on to CCc1nc(N2CCN(c3ncccn3)CC2)c2cnn(C)c2n1
Data returned: -5.59

Data request: Next up: COc1ncccc1CN1C[C@@H]2COC[C@]2(COCC(=O)N(C)C)C1
Data returned: -6.1

Data request: Likewise for NC(=O)N1CCC(C(=O)NC2CCc3nccn3C2)CC1 (stereo not drawn) ?
Data returned: -110

Data request: And CS(=O)(=O)NCC1CCCN(Cc2ccccc2F)C1 (stereo not drawn) ?
Data returned: -7.12

Data request: Another compound: CN1CCC(N2CCC(C(=O)N(C)C)CC2)CC1
Data returned: -0.525

Data request: Try the compound CN1CC(c2cc(O)nc(NCc3ccccc3Cl)n2)CC1=O (stereo not drawn)
Data returned: -2.82

Data request: Please give the result for Cc1cn2c(n1)CCC(NC(=O)c1ccc(CS(C)(=O)=O)cc1)C2 (stereo not drawn) too.
Data returned: -1.89

Data request: Do the same for CCSc1ncc(CN2CCN(c3nc(C)ncc3C)CC2)cn1 please
Data returned: -11.5
